targetDesc: STK39 (human)
protocol: KINOMEscan competition binding
assaySetup: compound 10.0 µM
readout: kinase still bound, per cent of control (%)
Answers are plain numbers, in %.

Below, 4 compounds whose answers are already recorded.
- C=CC(=O)Nc1cc(NC(=O)c2ccc(C)c(NC(=O)c3ccno3)c2)cc(C(F)(F)F)c1: 86
- CCN1CCN(Cc2ccc(Nc3ncc4c(n3)N(C)c3ccccc3C(=O)N4C)cc2C(F)(F)F)CC1: 100
- CCCS(=O)(=O)Nc1ccc(F)c(C(=O)c2c[nH]c3ncc(-c4ccc(Cl)cc4)cc23)c1F: 100
- COc1cc(N2CCN(C)CC2)ccc1Nc1nc(N)c(C(=O)c2c(Cl)cccc2Cl)s1: 66

Let's switch to this compound now.
Please report the recorded kinase still bound, per cent of control for "O=C(NC1CC1)c1cccc(-c2ccc3c(NC(=O)C4CC4)n[nH]c3c2)c1" . 99
